# assay.explanation: Pharmacokinetic studies in Sprague Dawley rats (oral gavage and IV)
# Type: in vivo
# experimental.setup: rat, IV (1 mg/kg), male SD rats, plasma
reported.endpoint: C0 (ng/mL)

CC(=NC#N)NC[C@]12CCC(C)(C)C[C@H]1[C@H]1C(=O)C=C3[C@@]4(C)C=C(C#N)C(=O)C(C)(C)[C@@H]4CC[C@@]3(C)[C@]1(C)CC2
747
CC1(C)C(=O)C(C#N)=C[C@]2(C)C3=CC(=O)[C@@H]4[C@@H]5C[C@@](C)(N6C(=O)CCC6=O)CC[C@]5(C)CC[C@@]4(C)[C@]3(C)CC[C@@H]12
472
Cc1noc([C@@]2(C)CC[C@]3(C)CC[C@]4(C)[C@H](C(=O)C=C5[C@@]6(C)C=C(C#N)C(=O)C(C)(C)[C@@H]6CC[C@]54C)[C@@H]3C2)n1
380
CC1(C)C(=O)C(C#N)=C[C@]2(C)C3=CC(=O)[C@@H]4[C@@H]5C[C@@](C)(N6CCCC6=O)CC[C@]5(C)CC[C@@]4(C)[C@]3(C)CC[C@@H]12
359

(A) Cc1nnc([C@@]2(C)CC[C@]3(C)CC[C@]4(C)[C@H](C(=O)C=C5[C@@]6(C)C=C(C#N)C(=O)C(C)(C)[C@@H]6CC[C@]54C)[C@@H]3C2)o1
(B) CC1(C)C(=O)C(C#N)=C[C@]2(C)C3=CC(=O)[C@@H]4[C@@H]5C[C@@](C)(N6CC(O)C6)CC[C@]5(C)CC[C@@]4(C)[C@]3(C)CC[C@@H]12
(C) CC1(C)C(=O)C(C#N)=C[C@]2(C)C3=CC(=O)[C@@H]4[C@@H]5C[C@@](C)(C#N)CC[C@]5(C)CC[C@@]4(C)[C@]3(C)CC[C@@H]12
Arrange these 3 compounds in increasing order of C0. Response format: the labels, sorted as the prompt asks.
A, C, B

* * *

# system.name: CYP2D6 (Homo sapiens)
# Construct: studied in liver microsomes of CD-1 mouse, Sprague Dawley rat, Beagle dog, cynomolgus monkey, and human; from tissue; host or cells: liver microsomes
# Sequence (P10635 whole entry): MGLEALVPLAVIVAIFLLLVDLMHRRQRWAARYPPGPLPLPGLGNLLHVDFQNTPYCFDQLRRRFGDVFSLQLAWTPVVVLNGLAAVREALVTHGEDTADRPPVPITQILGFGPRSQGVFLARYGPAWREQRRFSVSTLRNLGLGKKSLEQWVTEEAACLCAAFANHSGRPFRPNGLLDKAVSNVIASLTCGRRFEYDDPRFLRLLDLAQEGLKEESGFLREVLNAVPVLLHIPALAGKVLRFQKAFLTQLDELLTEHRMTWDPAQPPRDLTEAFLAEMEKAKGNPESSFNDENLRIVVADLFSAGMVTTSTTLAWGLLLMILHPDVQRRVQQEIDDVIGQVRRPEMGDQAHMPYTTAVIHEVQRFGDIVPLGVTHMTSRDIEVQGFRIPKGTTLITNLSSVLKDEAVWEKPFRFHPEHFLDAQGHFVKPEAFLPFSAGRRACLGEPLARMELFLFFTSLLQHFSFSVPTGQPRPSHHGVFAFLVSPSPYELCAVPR
# assay.explanation: CYP450 enzyme inhibition in liver microsomes (cocktail probe incubation)
# Format: in vitro ADME
# experimental.setup: species not given, 0.05-50 μM tested
reported.endpoint: IC50 (µM)

CC1(C)C(=O)C(C#N)=C[C@]2(C)C3=CC(=O)[C@@H]4[C@@H]5C[C@@](C)(n6cnnc6)CC[C@]5(C)CC[C@@]4(C)[C@]3(C)CC[C@@H]12
35.4
CC1(C)C(=O)C(C#N)=C[C@]2(C)C3=CC(=O)[C@@H]4[C@@H]5C[C@@](C)(C#N)CC[C@]5(C)CC[C@@]4(C)[C@]3(C)CC[C@@H]12
20.2

(I) CNC(=O)c1nnc([C@@]2(C)CC[C@]3(C)CC[C@]4(C)[C@H](C(=O)C=C5[C@@]6(C)C=C(C#N)C(=O)C(C)(C)[C@@H]6CC[C@]54C)[C@@H]3C2)o1
(II) CC1(C)C(=O)C(C#N)=C[C@]2(C)C3=CC(=O)[C@@H]4[C@@H]5C[C@@](C)(c6nnc(C7CC7)o6)CC[C@]5(C)CC[C@@]4(C)[C@]3(C)CC[C@@H]12
Select the item with the higher value of IC50 from the options I and II listed. Refer to your chosen item by its label in the answer.
II
